Origin of the recorded values: paper PMC11510214

molecular target: butyrylcholinesterase (BuChE) (Homo sapiens, UniProt P06276); assay: biochemical; conditions: read-out: % inhibition BuChE
Sequence (P06276 29-602): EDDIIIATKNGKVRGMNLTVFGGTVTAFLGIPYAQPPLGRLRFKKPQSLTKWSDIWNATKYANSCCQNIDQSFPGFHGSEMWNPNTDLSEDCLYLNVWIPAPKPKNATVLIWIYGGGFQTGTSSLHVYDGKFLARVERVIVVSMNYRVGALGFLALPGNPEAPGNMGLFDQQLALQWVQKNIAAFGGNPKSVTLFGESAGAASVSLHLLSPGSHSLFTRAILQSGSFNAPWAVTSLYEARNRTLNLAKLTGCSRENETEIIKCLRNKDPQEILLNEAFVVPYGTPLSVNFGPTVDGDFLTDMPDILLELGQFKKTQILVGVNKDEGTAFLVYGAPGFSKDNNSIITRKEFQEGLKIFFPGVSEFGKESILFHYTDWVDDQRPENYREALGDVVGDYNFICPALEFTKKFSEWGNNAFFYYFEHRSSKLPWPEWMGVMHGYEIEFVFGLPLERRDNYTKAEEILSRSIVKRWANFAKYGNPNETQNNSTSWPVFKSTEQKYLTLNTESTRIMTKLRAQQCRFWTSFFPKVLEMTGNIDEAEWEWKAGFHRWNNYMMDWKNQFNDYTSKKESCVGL
EXPERIMENTAL ENDPOINT: inhibition at 0.01 µM (%)
Hi! Could you send only the number? It should be in %, unit omitted.

compound="CC(=O)OC[C@H]1O[C@@H](n2cc(CSc3ccc(-c4ccccn4)nn3)nn2)[C@H](OC(C)=O)[C@@H]1OC(C)=O [Compound 6]" experimental_endpoint="inhibition at 0.01 µM" observed_measurement=4
compound="C#CCSc1ccc(-c2ccccn2)nn1 [Compound 1]" experimental_endpoint="inhibition at 0.01 µM" observed_measurement=8.7
compound="OC[C@H]1O[C@@H](n2cc(CSc3ccc(-c4ccccn4)nn3)nn2)[C@H](O)[C@@H]1O [Compound 8]" experimental_endpoint="inhibition at 0.01 µM" observed_measurement=5.9
compound="CC(=O)OCC1OC(n2cc(CSc3ccc(-c4ccccn4)nn3)nn2)C(OC(C)=O)C(OC(C)=O)C1OC(C)=O (centres unmarked) [Compound 3]" experimental_endpoint="inhibition at 0.01 µM" observed_measurement=25
compound="OCCOCCn1cc(CSc2ccc(-c3ccccn3)nn2)nn1 [Compound 9]" experimental_endpoint="inhibition at 0.01 µM" observed_measurement=22
compound="OC[C@H]1O[C@@H](n2cc(CSc3ccc(-c4ccccn4)nn3)nn2)[C@H](O)[C@@H](O)[C@@H]1O [Compound 7]" experimental_endpoint="inhibition at 0.01 µM" observed_measurement=7.8
compound="CCN(C)C(=O)Oc1cccc([C@H](C)N(C)C)c1 [Rivastigmine, rivastigmine, reference compound]" experimental_endpoint="inhibition at 0.01 µM" observed_measurement=0.7

Kindly review the next compound as well.
Supply recorded inhibition at 0.01 µM for CC(=O)OC[C@H]1O[C@@H](n2cc(CSc3ccc(-c4ccccn4)nn3)nn2)[C@H](OC(C)=O)[C@@H](OC(C)=O)[C@H]1OC(C)=O [Compound 4] here.
5.1

* * *

biological target: acetylcholinesterase (AChE) (Homo sapiens); assay: biochemical; settings: read-out: % inhibition AChE;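 further: Kit-based enzyme assay using enzymes of human origin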
Sequence (P22303 32-614): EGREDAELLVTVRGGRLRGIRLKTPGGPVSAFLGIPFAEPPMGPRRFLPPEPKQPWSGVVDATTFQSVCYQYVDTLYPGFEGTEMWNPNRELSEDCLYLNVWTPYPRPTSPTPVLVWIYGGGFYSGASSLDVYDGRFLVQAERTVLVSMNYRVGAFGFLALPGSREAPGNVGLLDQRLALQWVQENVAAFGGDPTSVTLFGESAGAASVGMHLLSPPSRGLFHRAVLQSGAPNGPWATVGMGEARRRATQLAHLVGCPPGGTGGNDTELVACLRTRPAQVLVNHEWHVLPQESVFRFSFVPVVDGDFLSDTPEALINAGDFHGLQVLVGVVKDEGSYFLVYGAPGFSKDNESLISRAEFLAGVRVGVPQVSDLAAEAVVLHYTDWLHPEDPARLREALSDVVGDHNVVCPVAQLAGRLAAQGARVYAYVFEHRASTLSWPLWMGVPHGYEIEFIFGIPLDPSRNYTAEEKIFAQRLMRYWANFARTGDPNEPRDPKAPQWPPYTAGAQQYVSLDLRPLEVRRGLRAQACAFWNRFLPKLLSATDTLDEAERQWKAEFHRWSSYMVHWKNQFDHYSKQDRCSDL
Catalogue of inhibition at 1 µM readings, one per entry.
Please make sure the unit comes right after the number.

compound="CC(=O)OCC1OC(n2cc(CSc3ccc(-c4ccccn4)nn3)nn2)C(OC(C)=O)C(OC(C)=O)C1OC(C)=O (stereo not shown)" experimental_system="acetylcholinesterase (AChE) (Homo sapiens)" observed_measurement=43%
compound="CC(=O)OC1COC(n2cc(CSc3ccc(-c4ccccn4)nn3)nn2)C(OC(C)=O)C1OC(C)=O (stereo not shown)" experimental_system="acetylcholinesterase (AChE) (Homo sapiens)" observed_measurement=71%
compound=C#CCSc1ccc(-c2ccccn2)nn1 experimental_system="acetylcholinesterase (AChE) (Homo sapiens)" observed_measurement=51%

Supply recorded inhibition at 1 µM for OCCn1cc(CSc2ccc(-c3ccccn3)nn2)nn1 here.
68%

Supply recorded inhibition at 1 µM for OC[C@H]1O[C@@H](n2cc(CSc3ccc(-c4ccccn4)nn3)nn2)[C@H](O)[C@@H]1O here.
62%

Supply recorded inhibition at 1 µM for NCCn1cc(CSc2ccc(-c3ccccn3)nn2)nn1 here.
53%

Supply recorded inhibition at 1 µM for CC(=O)OC[C@H]1O[C@@H](n2cc(CSc3ccc(-c4ccccn4)nn3)nn2)[C@H](OC(C)=O)[C@@H](OC(C)=O)[C@H]1OC(C)=O here.
47%

Supply recorded inhibition at 1 µM for OCCOCCn1cc(CSc2ccc(-c3ccccn3)nn2)nn1 here.
70%

Supply recorded inhibition at 1 µM for OC[C@H]1O[C@@H](n2cc(CSc3ccc(-c4ccccn4)nn3)nn2)[C@H](O)[C@@H](O)[C@@H]1O here.
62%

Supply recorded inhibition at 1 µM for CC(=O)OC[C@H]1O[C@@H](n2cc(CSc3ccc(-c4ccccn4)nn3)nn2)[C@H](OC(C)=O)[C@@H]1OC(C)=O here.
55%
